# SYSTEM: human GPR119 (Homo sapiens, UniProt Q8TDV5)
# Sequence (Q8TDV5 whole entry): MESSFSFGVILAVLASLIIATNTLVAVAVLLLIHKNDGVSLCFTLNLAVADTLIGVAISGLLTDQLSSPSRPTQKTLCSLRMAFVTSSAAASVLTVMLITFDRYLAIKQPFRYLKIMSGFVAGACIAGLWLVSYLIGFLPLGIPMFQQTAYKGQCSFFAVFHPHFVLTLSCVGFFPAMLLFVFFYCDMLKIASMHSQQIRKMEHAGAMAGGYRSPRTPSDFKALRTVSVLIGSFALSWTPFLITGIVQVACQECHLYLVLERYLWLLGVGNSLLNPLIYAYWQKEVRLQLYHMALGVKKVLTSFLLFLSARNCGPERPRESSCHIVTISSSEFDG
# RUN_DESCRIPTION: Human Tet-inducible cAMP assay
# EXPERIMENTAL_PARAMETERS: Flp-In-T-REx 293 tetracycline inducible cells expressing GPR119; cAMP by Hit Hunter cAMP kit; 1 hour at 37° C.; read-out: hGPR119 EC50
MEASURED_PROPERTY: EC50 (nM)
Supply the numeric figure in nM, leaving out any unit text.

What does the data say about its EC50? Entry: `CS(=O)(=O)c1ccc(-n2ccc(OC3CCN(C(=O)CCc4ccccc4)CC3)cc2=O)cc1` 275

Would you kindly repeat that for CC(C)OC(=O)N1[C@@H]2CC[C@@H]1CC(Oc1ccn(-c3ccc(S(C)(=O)=O)cc3)c(=O)c1)C2 (stereo partly shown) ? 3500

Similarly, `CC(C)OC(=O)N1CCC(Oc2ccn(-c3ccc(NC(=O)C(C)C)cc3)c(=O)c2)CC1` ? 3390

For `CCCc1cnc(N2CCC(Oc3ccn(-c4ccc(S(C)(=O)=O)cc4C)c(=O)c3)CC2)nc1` then? 265

----------
Exercise: state measured EC50 for each of the compounds provided.
# SYSTEM: human GPR119 (Homo sapiens, UniProt Q8TDV5)
# RUN_DESCRIPTION: Human Tet-inducible cAMP assay
# EXPERIMENTAL_PARAMETERS: Flp-In-T-REx 293 tetracycline inducible cells expressing GPR119; cAMP by Hit Hunter cAMP kit; 1 hour at 37° C.; read-out: hGPR119 EC50
Where a name gives a salt, the structure may show the parent alone.
Hey, just the number and the unit after it is fine.

What value of EC50 has been reported for the following compound? `N#Cc1ccc(-n2cc(Cl)c(OC3CCN(c4ncc(C5CC5)cn4)CC3)cc2=O)c(F)c1` 4 nM

Same thing, different compound: CCCc1cnc(N2CCC(Oc3cc(=O)n(-c4ccc(S(C)(=O)=O)c(F)c4)cc3Cl)CC2)nc1 [Example 224, TFA salt] 6 nM

Item: `N#Cc1ccc(-n2cc(Cl)c(OC3CCN(c4ncc(C5CC5)cn4)CC3)cc2=O)cc1F` 4 nM

Entry `Cc1cc(OC2CCN(c3ncc(C4CC4)cn3)CC2)cc(=O)n1-c1ccc(S(C)(=O)=O)cc1` please 5000 nM

Here is the next compound: `CS(=O)(=O)c1ccc(-n2ccc(OC3CCN(S(=O)(=O)C4CC4)CC3)cc2=O)cc1` 3270 nM

Also `N#Cc1ccc(-n2cc(Cl)c(OC3CCN(c4ncc(CCC(F)(F)F)cn4)CC3)cc2=O)cc1F` ? 4 nM

Check CCCc1cnc(N2CCC(Oc3ccn(-c4ccc(C#N)cc4F)c(=O)c3)CC2)nc1 [Example 177, TFA salt] too. 8 nM

Try this compound next: `CC(C)OC(=O)N1CCC(Oc2ccn(-c3cncnc3)c(=O)c2)CC1` 5090 nM

Check `CCOc1ccc(OC(=O)N2CCC(Oc3ccn(-c4ccc(S(C)(=O)=O)cc4)c(=O)c3)CC2)cc1` too. 293 nM

Please answer likewise for `CS(=O)(=O)c1ccc(-n2ccc(OC3CCN(C(=O)c4cnc5ccccc5n4)CC3)cc2=O)cc1` 303 nM

How about this compound: `CCCc1cnc(N2CCC(Oc3cc(C)n(-c4ccc(S(C)(=O)=O)cc4)c(=O)c3)CC2)nc1` 5000 nM

Follow-up item: `CC(C)(C)OC(=O)N1CCC(Oc2cc(=O)n(-c3ccc(C#N)c(F)c3)cc2Cl)CC1` 4 nM

Please do the same for `CCCc1cnc(N2CCC(Oc3ccn(-c4ccc(NC(=O)C(C)(C)C)c(F)c4)c(=O)c3)CC2)nc1` as well. 9 nM

Next up: `CCCOC(=O)N1CCC(Oc2ccn(-c3ccc(S(C)(=O)=O)cc3)c(=O)c2)CC1` 304 nM

Try CCCc1cnc(N2CCC(Oc3cc(=O)n(-c4ccc(S(C)(=O)=O)cc4)cc3Cl)CC2)nc1 [Example 194, TFA salt] next. 5 nM

Check `CS(=O)(=O)c1ccc(-n2ccc(OC3CCN(S(=O)(=O)c4ccccn4)CC3)cc2=O)cc1` too. 3520 nM

Now try CCCc1cnc(N2CCC(Oc3ccn(-c4ccc(S(C)(=O)=O)nc4C)c(=O)c3)CC2)nc1 [Example 206, TFA salt] . 293 nM

Could you do the same for `Cc1cnc(N2CCC(Oc3ccn(-c4ccc(S(C)(=O)=O)cc4)c(=O)c3)CC2)nc1` , please? 261 nM

Ok, now `CCCc1cnc(N2CCC(Oc3cc(=O)n(-c4ccc(C#N)c(F)c4)cc3Cl)CC2)nc1` 1 nM

Next compound: `CS(=O)(=O)c1ccc(-n2ccc(OC3CCN(c4ncc(C5CCC5)cn4)CC3)cc2=O)c(F)c1` 9 nM

Next compound: `CCCc1cnc(N2CCC(Oc3ccn(-c4ccc(C#N)c(F)c4)c(=O)c3)CC2)nc1` 7 nM

Field entry: `CS(=O)(=O)c1ccc(-n2ccc(OC3CCN(c4nc5ccccc5o4)CC3)cc2=O)cc1` 314 nM

Query CCCc1cnc(N2CCC(Oc3ccn(-c4ccc(C(N)=O)cc4F)c(=O)c3)CC2)nc1 [Example 179, TFA salt] next 276 nM

// repeat for `CS(=O)(=O)c1ccc(-n2ccc(OC3CCN(S(C)(=O)=O)CC3)cc2=O)cc1` and report 4340 nM

Repeat for the following compound: `COc1cccc(-n2ccc(OC3CCN(C(=O)OC(C)C)CC3)cc2=O)c1` 3490 nM

What about this compound? CCCc1cnc(N2CCCC(Oc3ccn(-c4ccc(S(C)(=O)=O)cc4)c(=O)c3)CC2)nc1 (stereo not shown) 257 nM

What do you have for `CS(=O)(=O)c1ccc(-n2ccc(OC3CCN(S(=O)(=O)CC(F)(F)F)CC3)cc2=O)cc1` ? 4030 nM

Another: Cc1nc(S(C)(=O)=O)ccc1-n1ccc(OC2CCN(C(=O)OC(C)C)CC2)cc1=O [Example 207, TFA salt] 7070 nM

How about this compound: `CCCc1cnc(N2CCC(Oc3ccn(-c4ccc(S(C)(=O)=O)c(F)c4)c(=O)c3)CC2)nc1` 8 nM

Would you mind doing `CC(C)OC(=O)N1CCC(Oc2ccn(-c3ccc(S(C)(=O)=O)nc3)c(=O)c2)CC1` as well? 7140 nM

Proceed to `CCCc1cnc(N2CCC(Oc3ccn(-c4cncnc4)c(=O)c3)CC2)nc1` 241 nM

----------
# SYSTEM: human GPR119 (Homo sapiens)
# RUN_DESCRIPTION: Human Tet-inducible cAMP assay
# EXPERIMENTAL_PARAMETERS: Flp-In-T-REx 293 tetracycline inducible cells expressing GPR119; cAMP by Hit Hunter cAMP kit; 1 hour at 37° C.; read-out: hGPR119 EC50
Counter-ions that a name gives are not always drawn.
Would you mind telling me the reported EC50 of each entry?

// EC50 lookup, key: CCCc1ccc(OC(=O)N2CCC(Oc3ccn(-c4ccc(S(C)(=O)=O)cc4)c(=O)c3)CC2)cn1 [Example 153, TFA salt] 273 nM

Check `CCc1cnc(N2CCC(Oc3ccn(-c4cccnc4)c(=O)c3)CC2)nc1` too. 250 nM

Same question, `Cc1cc(Br)ccc1OC(=O)N1CCC(Oc2ccn(-c3ccc(S(C)(=O)=O)cc3)c(=O)c2)CC1` this time 274 nM
